target.system: human serum albumin (human) (UniProt P02768)
Sequence (P02768 25-609 limits assumed): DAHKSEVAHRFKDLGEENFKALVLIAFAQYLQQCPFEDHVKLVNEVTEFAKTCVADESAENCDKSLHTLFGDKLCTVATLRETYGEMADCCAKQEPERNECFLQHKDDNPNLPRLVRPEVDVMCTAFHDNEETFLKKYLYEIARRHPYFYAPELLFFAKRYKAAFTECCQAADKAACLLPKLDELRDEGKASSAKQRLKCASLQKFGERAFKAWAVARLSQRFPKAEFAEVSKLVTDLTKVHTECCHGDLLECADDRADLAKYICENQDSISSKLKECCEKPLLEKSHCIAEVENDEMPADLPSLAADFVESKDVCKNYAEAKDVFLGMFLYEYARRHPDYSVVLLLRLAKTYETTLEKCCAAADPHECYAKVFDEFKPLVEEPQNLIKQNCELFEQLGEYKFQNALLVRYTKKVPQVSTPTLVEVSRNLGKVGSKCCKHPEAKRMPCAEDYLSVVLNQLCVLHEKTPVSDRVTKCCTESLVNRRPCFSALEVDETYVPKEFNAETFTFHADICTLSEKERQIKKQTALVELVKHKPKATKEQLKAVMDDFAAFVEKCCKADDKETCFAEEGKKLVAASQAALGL
assay.text: screening ELISA; note: unit not given here
Listed below: HSA values for each entry.
measured.endpoint: HSA

binder | number
SEQ ID NO 267 (designed binder) MLPAPKNLVVSRVTEDSARLSWTAPDAAFDSFPIVYSEIHVIGEAIVLTVPGSERSYDLTGLKPGTEYDVWIEGVKGGHLSEPLSAIFTT | 11900
SEQ ID NO 54 (designed binder) MLPAPKNLVVSRVTEDSARLSWTAPDAAFDSFQILYQENAFEGEAIVLTVPGSERSYDLTGLKPGTEYWVYIYGVKGGYPSVPLSAIFTT | 6160
SEQ ID NO 48 (designed binder) MLPAPKNLVVSRVTEDSARLSWTAPDAAFDSFVIEYFEQFNLGEAIVLTVPGSERSYDLTGLKPGTEYWVGIYGVKGGWLSHPLSAIFTT | 2800
SEQ ID NO 139 (designed binder) MLPAPKNLVVSRVTEDSARLSWTAPDAAFDSFDISYWESGKYGEAIVLTVPGSESSYDLTGLKPGTEYLVDIFGVKGGYPSEPLSAIFTT | 2100
